Test system: CP252
Experiment: qHTS profiling for inhibitors of Plasmodium falciparum proliferation (AID 504749); also: nearly all actives have a fitted effect of over 60% in size
Conditions: P. falciparum in erythrocytes, SYBR Green DNA, 72 h; series mostly up to 28.7 µM
Inconclusive results are not listed. The source made the active and inactive calls. Calls follow the shape of the dose curve; as a rule, active = well fitted inhibition curve with a large enough effect; inconclusive = small, poorly fitted or top-dose-only effect; inactive = flat fitted curve, though single readings scatter.
A correct response names exactly one class from active, inactive

Past entries and their recorded results:
[[record]]
compound = "O=c1oc2ccccc2c(O)c1Cc1c(O)c2ccccc2oc1=O"
targetsystem = "CP252"
labelvalue = "inactive"

[[record]]
compound = "CN1C(=O)C(O)N=C(c2ccccc2)c2cc(Cl)ccc21 (stereo not given)"
targetsystem = "CP252"
labelvalue = "inactive"

[[record]]
compound = "CC(C)(C)NCC(O)c1cc(Cl)c(N)c(C(F)(F)F)c1 (stereo not given)"
targetsystem = "CP252"
labelvalue = "active"

[[record]]
compound = "NNc1ccccc1"
targetsystem = "CP252"
labelvalue = "inactive"


Answer briefly: the call reported for Nc1ccc([As](=O)(O)O)cc1 in this assay. inactive

Tell me the recorded outcome of this test for O=C1c2ccccc2C(=O)C1C(=O)C(c1ccccc1)c1ccccc1 . inactive

Hi, do you know how C[C@](O)(CS(=O)(=O)c1ccc(F)cc1)C(=O)Nc1ccc(C#N)c(C(F)(F)F)c1 came out in this test? inactive

Tell me the recorded outcome of this test for Clc1cccc(SC2CCNCC2)n1 . inactive

Fill in: this test's call for O=C(Nc1ccc(Br)cc1)c1cc(Br)cc(Br)c1O is ___ inactive

Outcome logged for CC(C)c1cccc(C(C)C)c1O in this assay: inactive

Just curious, what result did C[C@]12CC[C@@H]3c4ccc(OC(=O)N(CCCl)CCCl)cc4CC[C@H]3[C@@H]1CC[C@@H]2O get here? inactive

Test call, this compound: CC(C)=CC1C(C(=O)OCN2C(=O)C3=C(CCCC3)C2=O)C1(C)C (stereo not given) inactive

Query: recorded result category for COP(=S)(OC)Oc1ccc(S(=O)(=O)N(C)C)cc1 in this test inactive

What call does the record list for CN1C(=O)COc2c(C(=O)NC3CN4CCC3CC4)cc(Cl)cc21 (stereo not given) ? inactive

Which outcome did this test record for the compound O=C1Nc2ccc(Cl)cc2C(c2ccccc2Cl)=NC1O (stereo not given) ? inactive

Recorded test call requested for C=C(C)[C@H]1CN[C@H](C(=O)O)[C@H]1CC(=O)O inactive

What is the recorded call for this compound in the test? O=C1CN=C(c2ccccc2)c2cc([N+](=O)[O-])ccc2N1 inactive

Identify the outcome logged in this assay for the compound shown: CCOC(=O)CC(SP(=S)(OC)OC)C(=O)OCC (stereo not given) inactive

Please state the recorded outcome for this compound: COP(=S)(OC)SCN1C(=O)c2ccccc2C1=O inactive

Could you kindly confirm the outcome this assay logged for CCCCCCCCCC(=O)O[C@H]1CC[C@H]2[C@@H]3CCC4=CC(=O)CC[C@@H]4[C@H]3CC[C@]12C ? inactive

I'd appreciate the recorded outcome for Cc1nnc2n1-c1ccc(Cl)cc1C(c1ccccc1)=NC2 from this test. inactive
